- Test Target: HIV protease (Human immunodeficiency virus type 1 group M subtype B, UniProt P12497)
pIC50: −log10 of the molar value.

Compound Smiles | pIC50
COCCOCCOCCOCCOC(=O)N[C@@H](Cc1ccccc1)[C@@H](O)C[C@@H](Cc1ccccc1)C(=O)N[C@H]1c2ccccc2C[C@H]1O | ~8.30
